Measured enrichment ratio, listed per entry for reference.
B1: PhoQ; a variant is named by its letters at X, in order, P23837 (parent)
chain: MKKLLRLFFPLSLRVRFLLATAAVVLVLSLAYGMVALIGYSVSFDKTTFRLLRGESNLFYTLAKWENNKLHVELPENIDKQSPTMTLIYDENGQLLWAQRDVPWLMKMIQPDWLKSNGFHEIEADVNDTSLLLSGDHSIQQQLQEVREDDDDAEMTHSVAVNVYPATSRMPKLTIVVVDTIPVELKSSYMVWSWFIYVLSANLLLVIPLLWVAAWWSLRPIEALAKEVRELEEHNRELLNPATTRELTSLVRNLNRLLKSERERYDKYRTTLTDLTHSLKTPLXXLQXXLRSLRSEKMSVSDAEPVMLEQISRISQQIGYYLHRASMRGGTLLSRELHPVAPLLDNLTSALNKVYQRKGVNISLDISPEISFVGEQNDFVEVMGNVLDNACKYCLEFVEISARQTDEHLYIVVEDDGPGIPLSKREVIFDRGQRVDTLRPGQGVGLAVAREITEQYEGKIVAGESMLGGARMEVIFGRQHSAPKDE

Variants of: B1
EXPERIMENT_NOTES: enrichment ratio after two sorts for PhoP signalling (ratio (wild type AVST 3.29)); higher = more functional
STUDY_CONDITIONS: with PhoP (E. coli)
In all, about 140,000 sequences were measured (“enrichment ratio after two sorts for PhoP signalling”: median about 0, highest 2% from about 11 on). The sample as a whole holds a higher share of the highest values than the screen did.
Please give only the number in your answer, with no unit.

1. AVPM: 1.53
2. TTHI: 11.5
3. ALMG: 6.08
4. AVSH: 12.4
5. YTMF: 5.8

Given the variant "AVAM" , what is its reported enrichment ratio? 3.19

Given the variant "THMF" , what is its reported enrichment ratio? 9.68

Given the variant "AVCK" , what is its reported enrichment ratio? 16.2

Given the variant "TAVC" , what is its reported enrichment ratio? 1.35
